target: human pancreatic lipase (hPL) (Homo sapiens); construct: gene PNLIP; conditions: 10 µM; inhibitor
Sequence (P16233 17-465): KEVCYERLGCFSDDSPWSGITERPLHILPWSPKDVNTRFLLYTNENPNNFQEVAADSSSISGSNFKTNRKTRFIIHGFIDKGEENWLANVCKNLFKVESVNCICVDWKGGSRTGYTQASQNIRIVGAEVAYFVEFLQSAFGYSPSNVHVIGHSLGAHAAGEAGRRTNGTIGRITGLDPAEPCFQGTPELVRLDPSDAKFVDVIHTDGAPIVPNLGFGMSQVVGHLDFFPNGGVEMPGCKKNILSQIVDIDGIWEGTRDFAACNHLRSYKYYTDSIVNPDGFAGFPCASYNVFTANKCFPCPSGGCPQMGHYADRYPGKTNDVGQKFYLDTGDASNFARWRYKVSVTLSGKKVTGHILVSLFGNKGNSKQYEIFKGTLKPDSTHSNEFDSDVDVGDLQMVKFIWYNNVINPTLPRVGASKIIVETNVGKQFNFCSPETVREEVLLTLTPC
Counter-ions that a name gives are not always drawn.
metric-name: % of control remaining (%)
Numeric only. Scale: %

**Query** Fill in: % of control remaining of COCCOC(=O)C1=C(C)NC(C)=C(C(=O)OC(C)C)C1c1cccc([N+](=O)[O-])c1 (centres unmarked) is ___
**Result** 98.69

**Query** Sample `COc1ccc2c(c1)c(CC(=O)O)c(C)n2C(=O)c1ccc(Cl)cc1` — what was its % of control remaining?
**Result** 102.95

**Query** # get_value(readout='% of control remaining', item= `CCC1=C[C@@H]2CN3CCc4c([nH]c5ccccc45)[C@@](C(=O)OC)(C2)[C@@H]13` )
**Result** 81.11

**Query** Name the reported % of control remaining value associated with the compound `Nc1ccn([C@@H]2O[C@H](CO)[C@@H](O)C2(F)F)c(=O)n1`
**Result** 105.06

**Query** Name the reported % of control remaining value associated with the compound `COC(=O)[C@@]1(C)CC[C@]2(C(=O)O)CC[C@]3(C)C(=CC[C@@H]4[C@@]5(C)C[C@H](O)[C@H](O)[C@@](C)(CO)[C@@H]5CC[C@]43C)[C@@H]2C1`
**Result** 85.42

**Query** Need % of control remaining of `COc1ccc(-c2cc(=O)c3c(O)cc(O)c(-c4cc(-c5cc(=O)c6c(O)cc(O)cc6o5)ccc4OC)c3o2)cc1` , thanks.
**Result** 54.78

**Query** Using the record for `COc1c(/C=C/C(=O)c2ccc(O)c(CC=C(C)C)c2)ccc(O)c1O` , report its % of control remaining.
**Result** 80.45

**Query** Look up % of control remaining: `O=c1cc(-c2ccc(O)cc2)oc2cc(O)c([C@@H]3O[C@H](CO)[C@@H](O)[C@H](O)[C@H]3O)c(O)c12`
**Result** 79.86

**Query** Please give the measured % of control remaining for this compound: `CC1=C(O)C(=O)C=C2C1=CC=C1[C@@]2(C)CC[C@@]2(C)[C@@H]3C[C@](C)(C(=O)O)CC[C@]3(C)CC[C@]12C`
**Result** 84.16

**Query** State the recorded % of control remaining for this entry: O=C(c1ccc(OCCN2CCCCC2)cc1)c1c(-c2ccc(O)cc2)sc2cc(O)ccc12 [d1, raloxifene]
**Result** 4.05

**Query** Recorded % of control remaining for `C[C@@H]1CC[C@@]2(NC1)O[C@H]1C[C@H]3[C@@H]4CC=C5C[C@@H](O[C@@H]6O[C@H](CO)[C@@H](O[C@@H]7O[C@@H](C)[C@H](O)[C@@H](O)[C@H]7O)[C@H](O)[C@H]6O)CC[C@]5(C)[C@H]4CC[C@]3(C)[C@H]1[C@@H]2C` , please?
**Result** 102.50

**Query** For `O=c1ccc2cc(O)c(O)cc2o1` , what is its reported % of control remaining?
**Result** 86.12

**Query** Look up % of control remaining for this compound: `CC1(C)O[C@H]2CC(=O)OC[C@]23[C@H]2CC[C@@]4(C)[C@H](c5ccoc5)OC(=O)[C@H]5O[C@]54[C@]2(C)C(=O)C[C@@H]13`
**Result** 85.30

**Query** May I ask what % of control remaining has been recorded for `CCc1c2c(nc3ccc(OC(=O)N4CCC(N5CCCCC5)CC4)cc13)-c1cc3c(c(=O)n1C2)COC(=O)[C@]3(O)CC` ?
**Result** 105.25

**Query** Item `CC(C)c1nc(CN(C)C(=O)N[C@H](C(=O)N[C@@H](Cc2ccccc2)C[C@H](O)[C@H](Cc2ccccc2)NC(=O)OCc2cncs2)C(C)C)cs1` has what recorded % of control remaining?
**Result** 97.04

**Query** # lookup: % of control remaining of `Nc1ccccc1NC(=O)c1ccc(CNC(=O)OCc2cccnc2)cc1`
**Result** 102.02

**Query** Looking for the measured % of control remaining of CNC(=O)c1cc(Oc2ccc(NC(=O)Nc3ccc(Cl)c(C(F)(F)F)c3)cc2)ccn1 [f1, sorafenib tosylate] , can you help?
**Result** 44.04

**Query** Record request: % of control remaining value, item `C[C@@H]1O[C@@H](O[C@H]2[C@H](OC(=O)[C@]34CCC(C)(C)C[C@H]3C3=CC[C@@H]5[C@@]6(C)C[C@H](O)[C@H](O[C@@H]7O[C@H](CO)[C@@H](O)[C@H](O)[C@H]7O)C(CO)(CO)[C@@H]6CC[C@@]5(C)[C@]3(C)C[C@H]4O)OC[C@H](O)[C@@H]2O)[C@H](O)[C@H](O)[C@H]1O[C@@H]1OC[C@@H](O)[C@H](O[C@@H]2OC[C@](O)(CO)[C@H]2O)[C@H]1O`
**Result** 89.14

**Query** Given the entry `CCC(CC)COC(=O)[C@H](C)N[P@](=O)(OC[C@H]1O[C@@](C#N)(c2ccc3c(N)ncnn23)[C@H](O)[C@@H]1O)Oc1ccccc1` , report its measured % of control remaining.
**Result** 98.67

**Query** % of control remaining lookup needed for `COc1c(/C=C/C(=O)c2ccc(O)cc2)ccc(O)c1O` , thanks.
**Result** 58.04

**Query** What value of measured % of control remaining is listed for CC1COc2c(N3CCN(C)CC3)c(F)cc3c(=O)c(C(=O)O)cn1c23 (centres unmarked) ?
**Result** 87.95

**Query** Name the reported % of control remaining value associated with the compound `Cc1ncc2n1-c1ccc(Cl)cc1C(c1ccccc1F)=NC2`
**Result** 96.73

**Query** Recorded % of control remaining of `CC(C)(O/N=C(\C(=O)N[C@@H]1C(=O)N2C(C(=O)[O-])=C(C[n+]3ccccc3)CS[C@H]12)c1csc(N)n1)C(=O)O` , please.
**Result** 118.41

**Query** Given the compound O=C1C=CC[C@@H]2[C@H]3CCC[N+]4([O-])CCC[C@@H](CN12)[C@@H]34 (some centres unmarked) , what is its reported % of control remaining?
**Result** 98.58

**Query** What value of % of control remaining has been recorded for this entry: `CCOC(=O)N1CCC(=C2c3ccc(Cl)cc3CCc3cccnc32)CC1`
**Result** 96.14

**Query** // returns reported % of control remaining for input CCN(CC)CCNC(=O)c1cc(S(C)(=O)=O)ccc1OC [Tiapride]
**Result** 108.20
